biological target: T1, recombinant gp120 of HIV-1 strain IIIb (HIV-1 strain IIIb, UniProt P04578 33-511); experiment: SPR BIAcore, gp120 on chip
T1 construct: domain: gp120; also called IIIb-derived gp120; gp 120 (IIIB strain)
assay.metric: pKd
The read-out pKd is expressed as -log10 of concentration in moles per litre.

Enquiry: Which value of pKd has been reported for Fab M556-10 (Fab, V domains shown) VH: LEQSGAEVKKPGASVKVSCQASGYRFSNFTVHWVRQAPGQRFEWMGWINPYNGNKEFSAKFQDRVTFTADTSANTAYMELRSLRSADTAVYYCARVGEWGWHQRRYDNYYMDVWGKGTTVIVSS VL: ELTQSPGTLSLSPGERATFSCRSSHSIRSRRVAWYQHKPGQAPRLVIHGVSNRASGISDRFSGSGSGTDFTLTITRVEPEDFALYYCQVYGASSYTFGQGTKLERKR in the records?
Return: 10.04

Enquiry: Which value of pKd has been reported for Fab M556-3 (Fab, V domains shown) VH: LEQSGAEVKKPGASVKVSCQASGYRFSNFTVHWVRQAPGQRFEWMGWINPYNGNKEFSAKFQDRVTFTADTSANTAYMELRSLRSADTAVYYCARVGEWGWEMFRYDNYYMDVWGKGTTVIVSS VL: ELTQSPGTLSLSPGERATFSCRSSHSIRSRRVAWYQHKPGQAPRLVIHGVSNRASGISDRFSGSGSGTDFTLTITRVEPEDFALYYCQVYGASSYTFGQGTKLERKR in the records?
Return: 10.00

Enquiry: Which value of pKd has been reported for Fab M556-7 (Fab, V domains shown) VH: LEQSGAEVKKPGASVKVSCQASGYRFSNFTVHWVRQAPGQRFEWMGWINPYNGNKEFSAKFQDRVTFTADTSANTAYMELRSLRSADTAVYYCARVGEWGWEMRRFDNYYMDVWGKGTTVIVSS VL: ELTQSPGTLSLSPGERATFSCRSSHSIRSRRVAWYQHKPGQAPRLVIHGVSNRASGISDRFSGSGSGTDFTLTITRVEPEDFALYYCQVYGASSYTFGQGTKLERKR in the records?
Return: 9.88
